- Tested on: SF-539 CNS
- protocol.details: NCI-60 one-dose screen, 48 h
- condition.notes: 10 µM
The panel holds about 83,000 compounds, 20% with a hit somewhere; the sample as a whole holds those more often. Active and inactive are the calls of the source. The calls were made as follows: active = growth percent below 10; inactive = the rest.
Outcome codes: 1 (yes) (active), 0 (no) (inactive)

[[record]]
molecule = "COc1ccc2c(c1)C(=O)/C(=C/c1cccc(OCC(=O)c3ccc([N+](=O)[O-])cc3)c1)CO2"
study_target = "SF-539 CNS"
qualitative_label = "0 (no)"

[[record]]
molecule = "O=[N+]([O-])c1ccc(/C(=C/c2ccccc2)[n+]2ccccc2)cc1"
study_target = "SF-539 CNS"
qualitative_label = "0 (no)"

[[record]]
molecule = "COc1cc(/C=C2\\CCCC3=C2NC(N)=NC3c2cc(OC)c(OC)c(OC)c2)cc(OC)c1OC (configuration not stated)"
study_target = "SF-539 CNS"
qualitative_label = "0 (no)"

[[record]]
molecule = "CCCCN(CCCC)C(=O)[C@H](CC)[C@@H]1CC[C@@H](C)[C@@H]([C@H](C)[C@@H](O)[C@@H](C)C(=O)[C@H](CC)C2O[C@]3(C=C[C@@H](O)[C@]4(CC[C@@](C)([C@H]5CC[C@](O)(CC)[C@H](C)O5)O4)O3)[C@H](C)C[C@@H]2C)O1 (some centres not stated)"
study_target = "SF-539 CNS"
qualitative_label = "0 (no)"

[[record]]
molecule = "Nc1nc(-c2ccc(Cl)cc2)cc(-c2cc3ccccc3oc2=O)n1"
study_target = "SF-539 CNS"
qualitative_label = "0 (no)"

[[record]]
molecule = "COc1cc2c(cc1NC(=O)C(F)(F)F)-c1ccc(NC(=O)C(F)(F)F)cc1C2"
study_target = "SF-539 CNS"
qualitative_label = "0 (no)"

[[record]]
molecule = "CCN(CC)CCCC(C)N=C(C1=C(C(=NC(C)CCCN(CC)CC)c2cccc(OC)c2)C(=O)NC1=O)c1cccc(OC)c1 (configuration not stated)"
study_target = "SF-539 CNS"
qualitative_label = "1 (yes)"


----------
- Test system: SW-620 colon
- protocol.details: NCI-60 one-dose screen, 48 h
- condition.notes: 10 µM
Compounds without any hit were thinned out: in the full panel of roughly 83,000, 20% have a hit. The source made the active and inactive calls. Rule for the calls: active = growth percent below 10; inactive = the rest.
Outcome codes: YES = active, NO = inactive

[[record]]
compound = "CN(C)CCCOc1ccc(NC2=C(Cl)C(=O)C(Nc3ccc(OCCCN(C)C)cc3)=C(Cl)C2=O)cc1"
qualitative_label = "YES"

[[record]]
compound = "O=C(Nc1cc(Cl)cc2c1-c1ccc(Cl)cc1C2O)C(Cl)Cl (configuration not stated)"
qualitative_label = "NO"

[[record]]
compound = "CC(=O)Oc1cc(OC(C)=O)c2ccccc2c1OC(C)=O"
qualitative_label = "NO"

[[record]]
compound = "COc1ccc(-c2nn(-c3cccc(Cl)c3)cc2-c2c(C#N)c(=O)n3[nH]c(-c4ccc(C)cc4)nc3c2C#N)cc1"
qualitative_label = "YES"

[[record]]
compound = "NS(=O)(=O)Oc1ccc(-c2ccc3sccc3c2)cc1"
qualitative_label = "NO"

[[record]]
compound = "CC(CN(C)C)Oc1ccccc1NC1=C(Cl)C(=O)C(Nc2ccccc2OC(C)CN(C)C)=C(Cl)C1=O (configuration not stated)"
qualitative_label = "YES"

[[record]]
compound = "CC(C)c1ccc(C(C)C(=O)N(CC2=C(C(C)c3ccccn3)c3ccccc3C2)C(C)C)cc1 (configuration not stated)"
qualitative_label = "NO"

[[record]]
compound = "C=C/C(C)=C/C[C@]1(C)[C@H](C)[C@@H](OC(=O)CCC)[C@H](O)[C@@]23C(=C[C@H](OC)C[C@@H]12)[C@@H](OC(=O)CCC)O[C@H]3OC(C)=O"
qualitative_label = "YES"

[[record]]
compound = "CC(C)c1cc(N=O)cc(C(C)C)c1O"
qualitative_label = "NO"

[[record]]
compound = "Cc1c2cnccc2c(C)c2c1oc1ccccc12"
qualitative_label = "NO"

[[record]]
compound = "COc1ccc(C(=O)N2C=Cc3ccccc3C2C#N)cc1 (configuration not stated)"
qualitative_label = "NO"

[[record]]
compound = "Nc1c(Br)cc(Br)c2c1[nH]c(=O)c1ccccc12"
qualitative_label = "NO"

[[record]]
compound = "Clc1nc2ccc(Br)cc2cc1-c1nc2ccccc2[nH]1"
qualitative_label = "NO"

[[record]]
compound = "COc1ccc(-c2n[nH]nc2-c2cc(OC)c3c(c2OC)OCO3)cc1"
qualitative_label = "NO"

[[record]]
compound = "Fc1ccc2[nH]cc(-c3nc(-c4ccsc4)cs3)c2c1"
qualitative_label = "NO"

[[record]]
compound = "COc1ccc(-c2onc(N)c2-c2cc(OC)c3c(c2)OCO3)cc1"
qualitative_label = "NO"

[[record]]
compound = "Cc1n[nH]c(C)c1N=Nc1cccc2c1C(=O)c1ccccc1C2=O"
qualitative_label = "NO"

[[record]]
compound = "c1ccc2c(c1)Cc1ccccc1N2CCN1CCCCC1"
qualitative_label = "NO"

[[record]]
compound = "COc1ccc(C2CC(c3cccs3)=NN2c2ccc(S(N)(=O)=O)cc2)cc1 (configuration not stated)"
qualitative_label = "NO"

[[record]]
compound = "CCOC(=O)CSc1nc(-c2cc(OC)ccc2OC)cc(-c2ccc(OC)cc2)c1C#N"
qualitative_label = "NO"

[[record]]
compound = "Nc1ncnc2c1ncn2C1(CO)OCC(O)C(O)C1O (configuration not stated)"
qualitative_label = "NO"

[[record]]
compound = "Cc1cc(C(C#N)c2ccc(Cl)cc2)c(Cl)cc1NC(=O)c1cc(I)cc(I)c1O (configuration not stated)"
qualitative_label = "NO"

[[record]]
compound = "Cc1c[nH]c(=O)n(Cc2nnc(CCC(=O)c3nc4ccccc4[nH]3)o2)c1=O"
qualitative_label = "NO"

[[record]]
compound = "CC(=O)N[C@H](C(=O)N[C@@H](CCCNC(=N)N)C(=O)N[C@@H](CCCCN)C(=O)N[C@@H](CCCNC(=N)N)C(=O)N[C@]1(C)CCCCCC/C=C\\CCC[C@@](C)(C(=O)N[C@@H](CCCNC(=N)N)C(=O)N[C@@H](CCC(=O)O)C(=O)N[C@@H](CC(C)C)C(=O)N[C@H](C(=O)N[C@@H](CCC(=O)O)C(N)=O)C(C)C)NC(=O)[C@H](CCC(N)=O)NC(=O)[C@H](CC(C)C)NC(=O)[C@H](CC(C)C)NC(=O)[C@H](CCCNC(=N)N)NC(=O)[C@H](CCCNC(=N)N)NC(=O)[C@H](CC(C)C)NC1=O)C(C)C"
qualitative_label = "NO"

[[record]]
compound = "Cc1cc(CCNC=O)c(C)c2c1sc1ccccc12"
qualitative_label = "NO"

[[record]]
compound = "COc1cc(C(=O)/C=C/c2c[nH]c3ccccc23)cc(OC)c1OC"
qualitative_label = "NO"

[[record]]
compound = "CCN(CC)CC(=O)N(CC)c1ccc(C)c(Cl)c1"
qualitative_label = "NO"


----------
- System: UO-31 renal
- protocol.details: NCI-60 one-dose screen, 48 h (100 = growth as untreated, 0 = no growth, -100 = all killed)
- condition.notes: 10 µM
The panel holds about 83,000 compounds, 20% with a hit somewhere; the sample as a whole holds those more often.
reported.endpoint: growth (%)

[[record]]
compound = "N#Cc1c(-c2ccc(Cl)cc2)csc1NC(=O)Nc1ccc(Cl)c(C(F)(F)F)c1"
study_target = "UO-31 renal"
measurement = 28.2

[[record]]
compound = "O=C(N/N=C/c1cc([N+](=O)[O-])ccc1O)c1cccc2ccccc12"
study_target = "UO-31 renal"
measurement = 19.1

[[record]]
compound = "CCc1cc(Cl)c(OC)c(C(=O)NCC2CCCN2CC)c1O (stereo not drawn)"
study_target = "UO-31 renal"
measurement = 61.4


----------
- Test system: SF-295 CNS
- protocol.details: NCI-60 one-dose screen, 48 h (100 = growth as untreated, 0 = no growth, -100 = all killed)
- condition.notes: 10 µM
The panel holds about 83,000 compounds, 20% with a hit somewhere; the sample as a whole holds those more often.
// values below are reported growth
reported.endpoint: growth (%)

[[record]]
compound = "C=CCn1c(SCC(=O)Nc2ccc(C(=O)/C=C/c3cc(OC)c(OC)c(OC)c3)cc2)nnc1-c1cc(-c2ccc(Cl)cc2)nc2ccccc12"
measurement = 98

[[record]]
compound = "NC1=CC(=O)C(=O)c2cccnc21"
measurement = 77.3

[[record]]
compound = "CCN(CC)CCCOc1cccc2c1C(=O)c1cccc(OCCCN(CC)CC)c1C2=O"
measurement = 45.2

[[record]]
compound = "CN(C)CCCOc1ccc(NC2=C(Cl)C(=O)C(Nc3ccc(OCCCN(C)C)cc3)=C(Cl)C2=O)cc1"
measurement = -22.8

[[record]]
compound = "CN1CCN(CC(=O)Nc2cccc(-n3cc(-c4ccncc4)c(-c4ccc(Cl)c(O)c4)n3)c2)CC1"
measurement = 21.8

[[record]]
compound = "Cc1ccc(NCCNCC(C)(C)O)c2c(=O)c3ccc(Cl)cc3sc12"
measurement = 74.1

[[record]]
compound = "COC(=O)CC[C@@H](C)[C@H]1CC[C@H]2[C@@H]3CC[C@@H]4C[C@H](O)CC[C@]4(C)[C@H]3C[C@H](O)[C@]12C"
measurement = 100

[[record]]
compound = "COc1ccc(-c2cc(-c3ccccc3)nc(SCCCCCCC(=O)NO)n2)cc1"
measurement = 67.4

[[record]]
compound = "CS(=O)(=O)c1nccc(-c2c(-c3cccc(OCCN4CCOCC4)c3)nc3sccn23)n1"
measurement = 104

[[record]]
compound = "COc1ccc(/C=C/C(=O)C(=O)/C=C/c2ccc(OC)c(OC)c2)cc1OC"
measurement = 73.8

[[record]]
compound = "CCCCc1oc2ccccc2c1C(=O)c1cc(I)c(OCCN(CC)CC)c(I)c1"
measurement = -66.7

[[record]]
compound = "CN1CCc2c(sc3nc4n(-c5ccc(Cl)cc5)c(=O)[nH]n4c(=O)c23)C1"
measurement = 104

[[record]]
compound = "O=C1c2ccccc2-c2c1c1cccnc1c(=O)n2C[C@H](O)CO"
measurement = 50.3

[[record]]
compound = "O=[N+]([O-])c1cccc(/C=N/NC(=S)NC23CC4CC(CC(C4)C2)C3)c1"
measurement = 73.3

[[record]]
compound = "O=C(CCCSc1nc(-c2ccccc2)cc(-c2ccc(Cl)cc2)n1)NO"
measurement = 4.46

[[record]]
compound = "Cc1cc(=O)n2nnc3cc(C(F)(F)F)ccc3n12"
measurement = 92.7

[[record]]
compound = "C[C@H]1[C@H](OC(=O)CCC(=O)O)O[C@@H]2O[C@]3(C)CC[C@H]4[C@H](C)CC[C@@H]1[C@@]24OO3"
measurement = 11.6

[[record]]
compound = "O=C(N/N=C/c1cc([N+](=O)[O-])ccc1O)c1cccc2ccccc12"
measurement = 26.4

[[record]]
compound = "COc1cc(-c2csc(NC(=O)Nc3cc(C(F)(F)F)cc(C(F)(F)F)c3)n2)cc(OC)c1OC"
measurement = -10.4

[[record]]
compound = "COc1cc2ncnc(NC3CCC(O)CC3)c2cc1OC (configuration not stated)"
measurement = 94.9

[[record]]
compound = "COC1=CC(=O)OC(c2ccc(OC)cc2)C1 (configuration not stated)"
measurement = 91.7

[[record]]
compound = "CS(=O)(=O)c1nccc(-c2c(-c3cccc(OCc4ccccc4)c3)nc3sccn23)n1"
measurement = 101

[[record]]
compound = "COc1cc(C2CC(c3cc(Cl)c(C)cc3O)=NN2c2ccc(S(N)(=O)=O)cc2)cc(OC)c1OC (configuration not stated)"
measurement = 22

[[record]]
compound = "CC(C)C[C@H](NC(=O)Cn1cccc(CNC(=O)c2ccccc2)c1=O)B(O)O"
measurement = 1.43

[[record]]
compound = "O=C(O)c1cn(C2CC2)c2cc(N3CCN(C(=O)c4cc(-c5ccc(Cl)cc5)nc5ccccc45)CC3)c(F)cc2c1=O"
measurement = 91.3

[[record]]
compound = "N#Cc1c(N)nc(-c2cc(F)cc(C(F)(F)F)c2)nc1-c1ccccc1F"
measurement = 35.2

[[record]]
compound = "O=C(Cn1cc(CO)nn1)Nc1nc2ccccc2s1"
measurement = 106

[[record]]
compound = "NC(N)=N/N=C(\\c1ccccc1)C(O)c1ccccc1 (configuration not stated)"
measurement = 102

[[record]]
compound = "O=C(CCC(C(=O)c1ccccc1)c1ccccc1)c1ccccc1 (configuration not stated)"
measurement = 36.9

[[record]]
compound = "Clc1nc2ccccc2cc1Cn1nnc(Cc2ccccc2)n1"
measurement = 47.6

[[record]]
compound = "CCn1c(SCc2ccc(C)cc2)nnc1-c1nn(-c2ccc(Cl)cc2Cl)c(-c2ccc(Cl)cc2)c1C"
measurement = 9.65

[[record]]
compound = "CC(=O)[C@@]12O[C@](C)(c3ccccc3)O[C@@H]1CC1C3CCC4=CC(=O)CC[C@]4(C)C3CC[C@@]12C (some centres not stated)"
measurement = 44.4

